# System: MDA-MB-361 breast cancer cells
# Assay Summary: MTT cytotoxicity assay, MDA-MB-361
# Format: cell-based, human
# Run Parameters: MDA-MB-361 cells, 48 h incubation, 3 independent experiments, read-out: IC50 (mean ± SE)
Outcome Measure: pIC50
Scale: pIC50 equals -log10([C]), with [C] in mol/L.

Request: I would be grateful if you could share the reported pIC50 for Cc1ccnc2c1ccc1c(C)ccnc12.Cc1ccnc2c1ccc1c(C)ccnc12.O=S(=O)([O-])[O-].[O]=[V+2] [[VO(SO4)(Me2-Phen)2]] .
Result: 5.72

---

# Test system: U138 human glioblastoma cells
# Assay Summary: MTT cytotoxicity assay, U138
# Format: cell-based
# Run Parameters: 48 h incubation, 3 independent experiments, read-out: IC50 (mean ± SE)
# Protocol: […] The cytotoxicity of [VO(SO4)(Me2-Phen)2] against human cancer cell lines was analyzed using the MTT (3-[4,5-dimethylthiazol-2-yl]-2,5-diphenyl tetrazolium bromide) assay (Boehringer Mannheim Corp., Indianapolis, Ind.) as described previously (Narla et al., Clin Cancer Res., 4: 1405-1414, 1998). […] The absorbance at 540 nm (a reference wavelength of 690 nm was used) of the solution in each well was measured using a microplate reader (Labsystems). […]
Outcome Measure: IC50 (nM)
// return numeric value only (unit: nM, not printed)

Request: I would be grateful if you could share the reported IC50 for Cc1ccnc2c1ccc1c(C)ccnc12.Cc1ccnc2c1ccc1c(C)ccnc12.O=S(=O)([O-])[O-].[O]=[V+2] [[VO(SO4)(Me2-Phen)2]] .
Result: 2700
